Where do the numbers come from? From patent US20060069132A1.

Reported Plant response rating (0 to 100 scale), Cocklebur values for the following molecules.
- System: cocklebur
- assay comment: Test B pre-/postemergence herbicide test
- Type: in vivo, Xanthium strumarium
- condition summary: 125 g ai/ha; 0 is no effect, 100 is complete control; preemergence
measurement label: Plant response rating (0 to 100 scale), Cocklebur

>>> meas_value("CCn1nc(C(C)(C)C)cc1C(=O)Nc1cc(C(=S)N(C)C)ccn1")
60
>>> meas_value("C=CCNC(=O)c1cccc(NC(=O)c2nn(C(C)(C)C)nc2CC)c1")
20
>>> meas_value("CCn1nc(C(C)(C)C)cc1C(=O)Nc1cc(OC)ccc1F")
0
>>> meas_value("CCc1nn(C(C)C)nc1C(=S)Nc1cccc(C(=S)N(C)C)c1")
0
>>> meas_value("CCN(CC)C(=O)c1ccnc(NC(=O)c2nn(C(C)(C)C)nc2C)c1")
0
>>> meas_value("C#CCOC(=O)c1cccc(NC(=O)c2cc(C(C)(C)C)nn2C)n1")
0
>>> meas_value("CCNC(=O)c1cccc(NC(=O)c2nn(C(C)(C)C)nc2C)c1")
40
>>> meas_value("Cc1nn(C(C)(C)C)nc1C(=O)Nc1cc(C(=O)N(C)C)ccn1")
20
>>> meas_value("CCOC(=O)c1ccc(F)c(NC(=S)c2cc(C(C)(C)C)nn2CC)c1")
0
>>> meas_value("CCc1nn(C(C)(C)C)nc1C(=O)Nc1cc(C(=O)N(C)C)ccc1F")
0
>>> meas_value("Cc1nn(C(C)C)nc1C(=O)Nc1cc(C(=O)N(C)C)ccc1F")
0

* * *

Reported Cocklebur plant response rating values for the following compounds.
- System: cocklebur
- assay comment: Test B pre-/postemergence herbicide test
- Type: in vivo, Xanthium strumarium
- condition summary: postemergence, 125 g ai/ha; visual rating, scale 0 (no effect) to 100 (complete control)
measurement label: Cocklebur plant response rating

>>> meas_value("CCN(CC)C(=O)c1cc(NC(=O)c2cc(C(C)(C)C)nn2CC)c(F)cc1F")
10
>>> meas_value("C=Cn1nc(C(C)(C)C)cc1C(=O)Nc1cccc(C(C)=NO)c1")
80
>>> meas_value("CCc1nc(C(C)(C)C)sc1C(=O)Nc1cccc(C(=O)N(C)C)c1")
30
>>> meas_value("CCNC(=O)c1cccc(NC(=O)c2nn(C(C)(C)C)cc2Cl)c1")
0
>>> meas_value("CC(=NO)c1cccc(NC(=O)c2cc(C(C)(C)C)nn2C(C)C)c1")
10
>>> meas_value("CCn1nc(C(C)(C)C)c(F)c1C(=O)Nc1cccc(C(=O)N(C)C)n1")
0
>>> meas_value("CCn1nc(C(C)(C)C)cc1C(=O)Nc1cccc(C(=O)N2CCCC2)n1")
40

* * *

- Tested on: blackgrass
- assay comment: Test B postemergence herbicide test
- Format: in vivo, Alopecurus myosuroides
- condition summary: postemergence, 500 g ai/ha; scale 0 to 100, 0 is no effect, 100 is complete control
measurement label: Blackgrass plant response rating

>>> meas_value("CCNC(=O)c1ccc(F)c(NC(=O)c2nn(C(C)(C)C)nc2CC)c1")
20
>>> meas_value("C=CCN(C)C(=O)c1cccc(NC(=O)c2cc(C(C)(C)C)nn2CC)c1")
30
>>> meas_value("CCOC(=O)c1cccc(NC(=O)c2cc(C(C)(C)C)nn2C)n1")
10
>>> meas_value("CCn1nc(C(C)(C)C)cc1C(=O)Nc1cccc(OC(F)F)c1")
80
>>> meas_value("CCNC(=O)c1cccc(NC(=O)c2cc(C3(C)CC3)nn2CC)c1")
30
>>> meas_value("CCn1nc(C(C)(C)C)c(F)c1C(=O)Nc1cccc(C(=O)N(C)C)n1")
30
